B1: library; a variant is named by its letters at N, in order (parent)
chain: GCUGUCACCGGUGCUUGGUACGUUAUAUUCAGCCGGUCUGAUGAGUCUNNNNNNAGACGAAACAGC

Variants of: B1
Experiment: FACS-Seq fitted mean relative fluorescence mCherry/BFP without ligand (log10 relative fluorescence); HEK293T overexpressing SLC46A1; higher = higher reporter protein expression
Conditions: without (6R,S)-folinic acid; ligand present: no
assay metric: FACS-Seq fitted mean (log10)
I only need the number, thanks.

Use the examples below as a reference point.
{"input sequence": "GCUGUCACCGGUGCUUGGUACGUUAUAUUCAGCCGGUCUGAUGAGUCUGUCCGGAGACGAAACAGC", "FACS-Seq fitted mean (log10)": -0.054}
{"input sequence": "GCUGUCACCGGUGCUUGGUACGUUAUAUUCAGCCGGUCUGAUGAGUCUACACCAAGACGAAACAGC", "FACS-Seq fitted mean (log10)": 0.658}

Entry "GCUGUCACCGGUGCUUGGUACGUUAUAUUCAGCCGGUCUGAUGAGUCUGCAAAAAGACGAAACAGC" has what FACS-Seq fitted mean (log10)?
0.327

Moving on to the next variant: "GCUGUCACCGGUGCUUGGUACGUUAUAUUCAGCCGGUCUGAUGAGUCUUAUAAGAGACGAAACAGC"
0.158

Moving on to the next variant: "GCUGUCACCGGUGCUUGGUACGUUAUAUUCAGCCGGUCUGAUGAGUCUUAGGUGAGACGAAACAGC"
0.228

Moving on to the next variant: "GCUGUCACCGGUGCUUGGUACGUUAUAUUCAGCCGGUCUGAUGAGUCUGAUAAAAGACGAAACAGC"
0.369

Moving on to the next variant: "GCUGUCACCGGUGCUUGGUACGUUAUAUUCAGCCGGUCUGAUGAGUCUUAUUGAAGACGAAACAGC"
0.265

Sourced from the supplement of paper PMC6757056
